Hey, just so you know, these numbers are from PubChem BioAssay (EPA / NIEHS).

# Read-out: Bcl-2 (BAX) gene, BAX (gene 581)
# assay.name: LTEA_HepaRG_BAX: Life Technologies and Expression Analysis (LTEA) Assay for Bcl-2 (BAX) gene using HepaRG (AID 2283470)
# assay.setup: mRNA level, 48 h; actives raise or lower the signal
Activity calls are given as the source filed them. The calls were made as follows: active = hit-call score of the fitted dose curve at least 0.9, where 1 is the maximum; inactive = score below 0.9.
Outcome codes: active, inactive

> print(dat)
                                    compound  group.label
 1  CCc1cccc(C)c1N(C(=O)CCl)C(C)COC (configuration not stated)     inactive
 2  CCOP(=O)(SC(C)CC)N1CCSC1=O (configuration not stated)     inactive
 3  COc1ccc(C(=CC(=O)N2CCOCC2)c2ccc(Cl)cc2)cc1OC     inactive
 4  CCC(CC)Nc1c([N+](=O)[O-])cc(C)c(C)c1[N+](=O)[O-]     inactive
 5  O=[N+]([O-])c1cc(C(F)(F)F)c(Cl)c([N+](=O)[O-])c1Nc1ncc(C(F)(F)F)cc1Cl     inactive
 6  CCOC(=O)CC(SP(=O)(OC)OC)C(=O)OCC (configuration not stated)     inactive
 7                 CNC(=O)ON=C(SC)C(=O)N(C)C     inactive
 8     CN1COCN(Cc2cnc(Cl)s2)C1=N[N+](=O)[O-]     inactive
 9     CCCOCC(=Nc1ccc(Cl)cc1C(F)(F)F)n1ccnc1       active
10       COc1cc(OC)nc(Sc2cccc(Cl)c2C(=O)O)n1     inactive
11              CCNc1nc(Cl)nc(NC(C)(C)C#N)n1     inactive
12                  CCC(=O)Nc1ccc(Cl)c(Cl)c1     inactive

###

# experimental.target: Retinoic acid receptor RXR-alpha (Homo sapiens) (UniProt P19793)
# Sequence (P19793 whole entry, looked up): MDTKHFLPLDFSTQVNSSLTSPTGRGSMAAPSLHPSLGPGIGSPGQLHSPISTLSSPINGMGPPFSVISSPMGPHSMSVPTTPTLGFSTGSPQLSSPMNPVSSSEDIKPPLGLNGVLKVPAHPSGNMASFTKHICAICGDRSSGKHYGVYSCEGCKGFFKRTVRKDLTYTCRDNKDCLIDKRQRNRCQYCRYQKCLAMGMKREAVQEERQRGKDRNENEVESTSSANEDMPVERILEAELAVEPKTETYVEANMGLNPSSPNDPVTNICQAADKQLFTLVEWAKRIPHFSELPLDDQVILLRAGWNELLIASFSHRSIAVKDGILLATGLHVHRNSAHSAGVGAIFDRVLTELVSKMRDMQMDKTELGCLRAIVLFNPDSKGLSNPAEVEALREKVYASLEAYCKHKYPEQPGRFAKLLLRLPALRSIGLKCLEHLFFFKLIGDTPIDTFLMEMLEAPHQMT
# assay.name: OT_NURR1_NURR1RXRa_1440: Odyssey Thera (OT) 24-hour HEK293T Protein Complementation Assay for Nurr1/retinoid X receptor (RXR) (AID 2283386)
Inconclusive results are not listed. Calls of active or inactive are those of the source. The calls were made as follows: active = hit-call score of the fitted dose curve at least 0.9, where 1 is the maximum; inconclusive = response in the unintended direction; inactive = score below 0.9.
Outcome codes: active, inactive

molecule	experimental.target	group.label
CCC(=O)Nc1ccc(Cl)c(Cl)c1	Retinoic acid receptor RXR-alpha (Homo sapiens) (UniProt P19793)	inactive
Nc1nc(N)nc(NC2CC2)n1	Retinoic acid receptor RXR-alpha (Homo sapiens) (UniProt P19793)	inactive
CCOP(=O)(OCC)Oc1cc(C)nc(C(C)C)n1	Retinoic acid receptor RXR-alpha (Homo sapiens) (UniProt P19793)	inactive
COP(=O)(OC)C(O)C(Cl)(Cl)Cl (stereo not given)	Retinoic acid receptor RXR-alpha (Homo sapiens) (UniProt P19793)	inactive
O=[N+]([O-])c1cc(C(F)(F)F)c(Cl)c([N+](=O)[O-])c1Nc1ncc(C(F)(F)F)cc1Cl	Retinoic acid receptor RXR-alpha (Homo sapiens) (UniProt P19793)	active
CCOP(=O)(SC(C)CC)N1CCSC1=O (stereo not given)	Retinoic acid receptor RXR-alpha (Homo sapiens) (UniProt P19793)	inactive
S=C1NCCN1	Retinoic acid receptor RXR-alpha (Homo sapiens) (UniProt P19793)	inactive
CC[C@H](C)[C@H]1O[C@]2(C=C[C@@H]1C)C[C@@H]1C[C@@H](C/C=C(\C)[C@@H](O[C@H]3C[C@H](OC)[C@@H](O[C@H]4C[C@H](OC)[C@@H](NC)[C@H](C)O4)[C@H](C)O3)[C@@H](C)/C=C/C=C3\CO[C@@H]4[C@H](O)C(C)=C[C@@H](C(=O)O1)[C@]34O)O2	Retinoic acid receptor RXR-alpha (Homo sapiens) (UniProt P19793)	inactive
Nc1c(Cl)cc([N+](=O)[O-])cc1Cl	Retinoic acid receptor RXR-alpha (Homo sapiens) (UniProt P19793)	inactive
C[Si](Cn1cncn1)(c1ccc(F)cc1)c1ccc(F)cc1	Retinoic acid receptor RXR-alpha (Homo sapiens) (UniProt P19793)	inactive
COc1cc(OC)nc(Sc2cccc(Cl)c2C(=O)O)n1	Retinoic acid receptor RXR-alpha (Homo sapiens) (UniProt P19793)	inactive
CN(C)C(=O)Nc1cccc(C(F)(F)F)c1	Retinoic acid receptor RXR-alpha (Homo sapiens) (UniProt P19793)	inactive
CCc1cccc(C)c1N(C(=O)CCl)C(C)COC (stereo not given)	Retinoic acid receptor RXR-alpha (Homo sapiens) (UniProt P19793)	inactive
CC(Oc1cccc(Cl)c1)C(=O)O (stereo not given)	Retinoic acid receptor RXR-alpha (Homo sapiens) (UniProt P19793)	inactive
CC(=NC#N)N(C)Cc1ccc(Cl)nc1	Retinoic acid receptor RXR-alpha (Homo sapiens) (UniProt P19793)	inactive

###

# Read-out: Transforming growth factor beta 1 (TGFb1), TGFB1 (gene 7040)
# assay.name: BSK_KF3CT_TGFb1: BioMAP Diversity Plus: KF3CT Assay for Transforming growth factor beta 1 (TGFb1) Biomarker Activity (AID 2283072)
# assay.setup: primary human keratinocytes with fibroblasts; actives raise or lower the signal
Calls of active or inactive are those of the source. The calls were made as follows: active = hit-call score of the fitted dose curve at least 0.9, where 1 is the maximum; inactive = score below 0.9.
Outcome codes: active, inactive

> print(dat)
                                   molecule  group.label
1     CNc1cnn(-c2cccc(C(F)(F)F)c2)c(=O)c1Cl     inactive
2                                 N#CSCSC#N       active
3  CC(COc1ccc(Oc2ccccc2)cc1)Oc1ccccn1 (configuration not stated)     inactive
4   C[Si](Cn1cncn1)(c1ccc(F)cc1)c1ccc(F)cc1     inactive
5       COc1cc(OC)nc(Sc2cccc(Cl)c2C(=O)O)n1     inactive
6  COP(=O)(OC)C(O)C(Cl)(Cl)Cl (configuration not stated)     inactive
7  CCC(CC)Nc1c([N+](=O)[O-])cc(C)c(C)c1[N+](=O)[O-]     inactive

###

# Read-out: ABC Transporter (ABCC2), ABCC2 (gene 1244)
# assay.name: LTEA_HepaRG_ABCC2: Life Technologies and Expression Analysis (LTEA) Assay for ABC Transporter (ABCC2) using HepaRG (AID 2283464)
# assay.setup: mRNA level, 48 h; actives raise or lower the signal
The source made the active and inactive calls. Rule for the calls: active = hit-call score of the fitted dose curve at least 0.9, where 1 is the maximum; inactive = score below 0.9.
Outcome codes: active, inactive

> print(dat)
                                    compound  group.label
 1                          CNC(=O)ON=C(C)SC     inactive
 2                       CCOP(=S)(OCC)SCCSCC     inactive
 3        COP(=O)(OC)SCn1c(=O)oc2cc(Cl)cnc21     inactive
 4     CN1COCN(Cc2cnc(Cl)s2)C1=N[N+](=O)[O-]     inactive
 5                                 S=C1NCCN1     inactive
 6        CC1(C(=O)Nc2ccc(O)c(Cl)c2Cl)CCCCC1     inactive
 7      CCOP(=S)(OCC)Oc1ccc([N+](=O)[O-])cc1     inactive
 8                 CNC(=O)ON=C(SC)C(=O)N(C)C     inactive
 9              CCc1cccc(CC)c1N(COC)C(=O)CCl     inactive
10              CCNc1nc(Cl)nc(NC(C)(C)C#N)n1       active
11  C=C(C)[C@H]1Cc2c(ccc3c2O[C@@H]2COc4cc(OC)c(OC)cc4[C@@H]2C3=O)O1       active
12  CC(C1CC1)C(O)(Cn1cncn1)c1ccc(Cl)cc1 (stereo unspecified)     inactive
13             CC1=NNC(=O)N(/N=C/c2cccnc2)C1     inactive
14  O=[N+]([O-])c1cc(C(F)(F)F)c(Cl)c([N+](=O)[O-])c1Nc1ncc(C(F)(F)F)cc1Cl       active
15                           C[N+]1(C)CCCCC1     inactive
16  CCCCOC(=O)[C@@H](C)Oc1ccc(Oc2ccc(C#N)cc2F)cc1     inactive
17  CCOC(=O)COc1cc(-c2nn(C)c(OC(F)F)c2Cl)c(F)cc1Cl       active
18                  CCCCOC(=O)c1ccccc1C(=O)O     inactive
19  CC(C)=CC1C(C(=O)OCN2C(=O)C3=C(CCCC3)C2=O)C1(C)C (stereo unspecified)     inactive
20  CCOP(=S)(OCC)OC(Cl)C(Cl)(Cl)Cl (stereo unspecified)     inactive
21  CC(COc1ccc(Oc2ccccc2)cc1)Oc1ccccn1 (stereo unspecified)       active
22  CCCOc1nn(C(=O)NS(=O)(=O)c2ccccc2C(=O)OC)c(=O)n1C     inactive
23  CCCCN(CC)c1c([N+](=O)[O-])cc(C(F)(F)F)cc1[N+](=O)[O-]     inactive
24                    CCCCSP(=O)(SCCCC)SCCCC     inactive
25    Cc1ccn2nc(S(=O)(=O)Nc3c(F)cccc3F)nc2n1     inactive
26  Cc1nn(-c2cc(NS(C)(=O)=O)c(Cl)cc2Cl)c(=O)n1C(F)F       active
